Give IC50 for every item shown.
# tgt: UniProtKB Q7ZJM1
# Sequence (Q7ZJM1 whole entry): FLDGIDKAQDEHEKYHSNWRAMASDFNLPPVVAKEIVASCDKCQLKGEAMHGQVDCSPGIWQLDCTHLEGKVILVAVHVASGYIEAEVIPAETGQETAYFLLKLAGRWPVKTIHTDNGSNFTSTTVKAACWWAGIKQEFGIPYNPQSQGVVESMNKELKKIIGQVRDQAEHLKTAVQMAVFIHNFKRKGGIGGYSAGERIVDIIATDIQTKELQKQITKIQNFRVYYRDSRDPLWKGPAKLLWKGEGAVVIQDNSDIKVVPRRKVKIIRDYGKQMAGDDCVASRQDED
# assay_details: Inhibition of wild type HIV-1 integrase 3' processing activity after 30 mins
Starred links: 1 amine or outer side, 2 acyl side, 3 side chain; linkers in the order of their positions; H or OH if unused. Positions of bridges follow the written chain, without caps; N, C: chain ends. Non-standard residues stand in square brackets, D forms with d. Residues, ends and D or L forms follow the SMILES beside them. X1 = C[C@@](CCCCC=[*:3])(N[*:1])C(=O)[*:2]; S5 = C=CCCC[C@](C)(N)C(=O)O
Only the number, expressed in µM, is required.

Please give measured IC50 of the following entry: C=CCCC[C@](C)(NC(=O)[C@H](CC(C)C)NC(=O)[C@@H](NC(=O)[C@H](CC(C)C)NC(=O)[C@](C)(CCCC=C)NC(=O)[C@H](Cc1ccccc1)NC(=O)[C@H](Cc1ccc(O)cc1)NC(=O)[C@H](C)NC(=O)[C@@H](N)[C@@H](C)O)[C@@H](C)CC)C(=O)NCC(=O)N[C@@H](CCCNC(=N)N)C(=O)N[C@@H](Cc1c[nH]c2ccccc12)C(=O)O (H-TAYF[S5]LIL[S5]GRW-OH) 15

Please give measured IC50 of the following entry: CC(C)C[C@@H]1NC(=O)[C@H](CCCCN)NC(=O)[C@H](CC(C)C)NC(=O)[C@@](C)(NC(=O)[C@H](Cc2ccccc2)NC(=O)[C@H](Cc2ccc(O)cc2)NC(=O)[C@H](C)NC(=O)[C@@H](N)[C@@H](C)O)CCCC/C=C/CCCC[C@@](C)(C(=O)NCC(=O)N[C@@H](CCCNC(=N)N)C(=O)N[C@@H](Cc2c[nH]c3ccccc23)C(=O)O)NC1=O (H-TAYF[X1]LKL[X1]GRW-OH; staple (E) 5-9) 48

Please give measured IC50 of the following entry: CC(C)C[C@@H]1NC(=O)[C@H](CCCCN)NC(=O)[C@H](CC(C)C)NC(=O)[C@@](C)(NC(=O)[C@H](Cc2ccccc2)NC(=O)[C@H](Cc2ccc(O)cc2)NC(=O)[C@H](C)NC(=O)[C@@H](NC(=O)c2ccc3c(c2)C(=O)OC32c3ccc(O)cc3Oc3cc(O)ccc32)[C@@H](C)O)CCC/C=C\CCC[C@@](C)(C(=O)NCC(=O)N[C@@H](CCCNC(=N)N)C(=O)N[C@@H](Cc2c[nH]c3ccccc23)C(=O)O)NC1=O (mixture of isomers) 5

* * *

Give IC50 for every item shown.
# tgt: UniProtKB Q7ZJM1
# assay_details: Inhibition of HIV-1 His6-tagged integrase assessed as inhibition of LEDGF/p75-integrase interaction incubated 30 mins prior to flag-tagged LEDGF/p75 addition measured after 1 hr by AlphaScreen assay
Starred links: 1 amine or outer side, 2 acyl side, 3 side chain; linkers in the order of their positions; H or OH if unused. Positions of bridges follow the written chain, without caps; N, C: chain ends. Non-standard residues stand in square brackets, D forms with d. Residues, ends and D or L forms follow the SMILES beside them. αMeNva(5-ylidene) = C[C@@](CCC=[*:3])(N[*:1])C(=O)[*:2]; S5 = C=CCCC[C@](C)(N)C(=O)O
Only the number, expressed in µM, is required.

Give the observed IC50 of CC(C)C[C@@H]1NC(=O)[C@H](CCCCN)NC(=O)[C@H](CC(C)C)NC(=O)[C@@](C)(NC(=O)[C@H](Cc2ccccc2)NC(=O)[C@H](Cc2ccc(O)cc2)NC(=O)[C@H](C)NC(=O)[C@@H](N)[C@@H](C)O)CC/C=C/CC[C@@](C)(C(=O)NCC(=O)N[C@@H](CCCNC(=N)N)C(=O)N[C@@H](Cc2c[nH]c3ccccc23)C(=O)O)NC1=O (H-TAYF[αMeNva(5-ylidene)]LKL[αMeNva(5-ylidene)]GRW-OH; staple (E) 5-9) for UniProtKB Q7ZJM1. 14

Give the observed IC50 of CC(C)C[C@@H]1NC(=O)[C@H](CCCCN)NC(=O)[C@H](CC(C)C)NC(=O)[C@@](C)(NC(=O)[C@H](Cc2ccccc2)NC(=O)[C@H](Cc2ccc(O)cc2)NC(=O)[C@H](C)NC(=O)[C@@H](N)[C@@H](C)O)CCC/C=C\CCC[C@@](C)(C(=O)NCC(=O)N[C@@H](CCCNC(=N)N)C(=O)N[C@@H](Cc2c[nH]c3ccccc23)C(=O)O)NC1=O (H-TAYF[S5]LKL[S5]GRW-OH; staple (Z) 5-9) for UniProtKB Q7ZJM1. 14
